STUDY_SYSTEM: C. muris cytosolic leucyl-tRNA synthetase (CmLeuRS) editing domain (Cryptosporidium muris, UniProt B6AA20)
Construct: gene CMU_041310; connective polypeptide domain (CP1) residues 254 to 541
Sequence (B6AA20 entry or part of it): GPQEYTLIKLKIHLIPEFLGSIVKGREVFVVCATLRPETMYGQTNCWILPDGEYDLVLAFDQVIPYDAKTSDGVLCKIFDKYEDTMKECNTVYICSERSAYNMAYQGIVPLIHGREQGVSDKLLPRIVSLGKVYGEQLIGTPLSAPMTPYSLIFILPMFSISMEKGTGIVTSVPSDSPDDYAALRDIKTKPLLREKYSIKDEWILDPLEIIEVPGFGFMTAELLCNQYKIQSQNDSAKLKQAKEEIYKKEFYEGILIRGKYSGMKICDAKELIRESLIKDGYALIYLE
ASSAY: ITC; crystal structure ([…] Å)
Format: binding
PROPERTY: Kd (µM)
Give a bare numeral; the unit µM is implied.

Kd for CC[C@H](C)[C@H](N)C(=O)N[C@@H]1[C@H](O)[C@@H](CO)O[C@H]1n1cnc2c(N)ncnc21 is 215

---

STUDY_SYSTEM: C. muris cytosolic leucyl-tRNA synthetase (CmLeuRS) editing domain (Cryptosporidium muris)
Construct: gene CMU_041310; connective polypeptide domain (CP1) residues 254 to 541
ASSAY: ITC; crystal structure ([…] Å)
Format: binding
PROPERTY: Kd

Summary line: CCC[C@H](N)C(=O)N[C@@H]1[C@H](O)[C@@H](CO)O[C@H]1n1cnc2c(N)ncnc21 , C. muris cytosolic leucyl-tRNA synthetase (CmLeuRS) editing domain (Cryptosporidium muris), reported Kd = 213 µM
